- protocol.text: activity coefficient (dimensionless); of the first substance listed, at infinite dilution; xn = mol fraction of the nth substance listed
- particulars: 358.15 K; 101.33 kPa; Liquid; Chromatography; x1 = 0
measurement.label: activity coefficient

{"columns": ["molecule", "activity coefficient"],
 "data": [
  ["Cc1cccc(C)c1 [1,3-dimethylbenzene] + N#C[N-]C#N.OCCC[n+]1ccccc1", 16.1],
  ["CCC(=O)CC [pentan-3-one] + N#C[N-]C#N.OCCC[n+]1ccccc1", 6.57]
]}

Turning to the following molecule.
What does the record list as activity coefficient for C=CCCCC [hex-1-ene] + N#C[N-]C#N.OCCC[n+]1ccccc1 ?
103

----------
Recorded activity coefficient, one value per entry.
- protocol.text: activity coefficient (dimensionless); of the first substance listed, at infinite dilution; xn = mol fraction of the nth substance listed
- particulars: 368.15 K; 101.33 kPa; Liquid; Chromatography; x1 = 0
Would you mind answering with just the numeric figure?

What does the record list as activity coefficient for CCO [ethanol] + N#C[N-]C#N.OCCC[n+]1ccccc1 ?
1.31

What does the record list as activity coefficient for CCCO [propan-1-ol] + N#C[N-]C#N.OCCC[n+]1ccccc1 ?
2.01

What does the record list as activity coefficient for C1COCCO1 [1,4-dioxane] + N#C[N-]C#N.OCCC[n+]1ccccc1 ?
2.38

What does the record list as activity coefficient for C=Cc1ccccc1 [styrene] + N#C[N-]C#N.OCCC[n+]1ccccc1 ?
8.32

----------
- protocol.text: activity coefficient (dimensionless); of the first substance listed, at infinite dilution; xn = mol fraction of the nth substance listed
- particulars: 298.15 K; 101.33 kPa; Liquid; Chromatography; x1 = 0
measurement.label: activity coefficient
Would you mind answering with just the numeric figure?

Use the examples below as a reference point.
{"columns": ["compound", "measurement"],
 "data": [
  ["C1CCCCC1 [cyclohexane] + N#C[N-]C#N.OCCC[n+]1ccccc1", 118],
  ["C#CCCCC [1-hexyne] + N#C[N-]C#N.OCCC[n+]1ccccc1", 19.8]
]}

Turning to the following compound.
What does the record list as activity coefficient for CCCCCCCCCC [decane] + N#C[N-]C#N.OCCC[n+]1ccccc1 ?
2100

----------
- protocol.text: activity coefficient (dimensionless); of the first substance listed, at infinite dilution; xn = mol fraction of the nth substance listed
- particulars: 318.15 K; 101.33 kPa; Liquid; Chromatography; x1 = 0
Recorded activity coefficient, one value per entry.
Would you mind answering with just the numeric figure?

Use the examples below as a reference point.
{"columns": ["molecule", "activity coefficient"],
 "data": [
  ["CCCCCCCCCC [decane] + N#C[N-]C#N.OCCC[n+]1ccccc1", 1730],
  ["CC(C)(C)O [2-methylpropan-2-ol] + N#C[N-]C#N.OCCC[n+]1ccccc1", 3.08]
]}

What does the record list as activity coefficient for C=CCCCCC [1-heptene] + N#C[N-]C#N.OCCC[n+]1ccccc1 ?
200

What does the record list as activity coefficient for CCCO [propan-1-ol] + N#C[N-]C#N.OCCC[n+]1ccccc1 ?
2.03

What does the record list as activity coefficient for CCOC(C)(C)C [2-ethoxy-2-methylpropane] + N#C[N-]C#N.OCCC[n+]1ccccc1 ?
85.6

----------
- protocol.text: activity coefficient (dimensionless); of the first substance listed, at infinite dilution; xn = mol fraction of the nth substance listed
- particulars: 358.15 K; 101.33 kPa; Liquid; Chromatography; x1 = 0
# if value of activity coefficient reaches 10, tag Yes; if it stays below, tag No

{"columns": ["molecule", "label.value"],
 "data": [
  ["C1=CCCCC1 [cyclohexene] + N#C[N-]C#N.OCCC[n+]1ccccc1", "Yes"],
  ["C1CCCCCC1 [cycloheptane] + N#C[N-]C#N.OCCC[n+]1ccccc1", "Yes"],
  ["CCCC=O [butanal] + N#C[N-]C#N.OCCC[n+]1ccccc1", "No"]
]}

Decide: is the reported value of activity coefficient for C1CCCCC1 [cyclohexane] + N#C[N-]C#N.OCCC[n+]1ccccc1 equal to or greater than 10?
Yes

Decide: is the reported value of activity coefficient for CCCCCCC [heptane] + N#C[N-]C#N.OCCC[n+]1ccccc1 equal to or greater than 10?
Yes

Decide: is the reported value of activity coefficient for CCCO [propan-1-ol] + N#C[N-]C#N.OCCC[n+]1ccccc1 equal to or greater than 10?
No

Decide: is the reported value of activity coefficient for Cc1ccccc1C [1,2-dimethylbenzene] + N#C[N-]C#N.OCCC[n+]1ccccc1 equal to or greater than 10?
Yes

Decide: is the reported value of activity coefficient for C=C(C)c1ccccc1 [(1-methylethenyl)benzene] + N#C[N-]C#N.OCCC[n+]1ccccc1 equal to or greater than 10?
Yes

Decide: is the reported value of activity coefficient for CCOC(C)(C)C [2-ethoxy-2-methylpropane] + N#C[N-]C#N.OCCC[n+]1ccccc1 equal to or greater than 10?
Yes

Decide: is the reported value of activity coefficient for COC(C)(C)C [2-methoxy-2-methylpropane] + N#C[N-]C#N.OCCC[n+]1ccccc1 equal to or greater than 10?
Yes

Decide: is the reported value of activity coefficient for C#CCCCCCC [1-octyne] + N#C[N-]C#N.OCCC[n+]1ccccc1 equal to or greater than 10?
Yes

Decide: is the reported value of activity coefficient for CC(C)=O [acetone] + N#C[N-]C#N.OCCC[n+]1ccccc1 equal to or greater than 10?
No

----------
Recorded activity coefficient, one value per entry.
- protocol.text: activity coefficient (dimensionless); of the first substance listed, at infinite dilution; xn = mol fraction of the nth substance listed
- particulars: 318.15 K; 101.33 kPa; Liquid; Chromatography; x1 = 0

{"columns": ["compound", "activity coefficient"],
 "data": [
  ["c1ccccc1 [benzene] + N#C[N-]C#N.OCCC[n+]1ccccc1", 5.02]
]}

What does the record list as activity coefficient for CCOC(C)=O [ethyl acetate] + N#C[N-]C#N.OCCC[n+]1ccccc1 ?
6.37

What does the record list as activity coefficient for CCCC(=O)OC [methyl butanoate] + N#C[N-]C#N.OCCC[n+]1ccccc1 ?
10.3

What does the record list as activity coefficient for C1CCCCCCC1 [cyclooctane] + N#C[N-]C#N.OCCC[n+]1ccccc1 ?
201

What does the record list as activity coefficient for COC(C)=O [methyl ethanoate] + N#C[N-]C#N.OCCC[n+]1ccccc1 ?
3.28

What does the record list as activity coefficient for c1ccsc1 [thiophene] + N#C[N-]C#N.OCCC[n+]1ccccc1 ?
2.6

----------
- protocol.text: activity coefficient (dimensionless); of the first substance listed, at infinite dilution; xn = mol fraction of the nth substance listed
- particulars: 358.15 K; 101.33 kPa; Liquid; Chromatography; x1 = 0
Recorded activity coefficient, one value per entry.
Would you mind answering with just the numeric figure?

{"columns": ["compound", "measurement.label", "measurement"],
 "data": [
  ["CCc1ccccc1 [ethylbenzene] + N#C[N-]C#N.OCCC[n+]1ccccc1", "activity coefficient", 17.4],
  ["CCCC(=O)OC [methyl butanoate] + N#C[N-]C#N.OCCC[n+]1ccccc1", "activity coefficient", 11.5]
]}

What does the record list as activity coefficient for CCC(C)(C)OC [2-methoxy-2-methylbutane] + N#C[N-]C#N.OCCC[n+]1ccccc1 ?
42.5

----------
- protocol.text: activity coefficient (dimensionless); of the first substance listed, at infinite dilution; xn = mol fraction of the nth substance listed
- particulars: 368.15 K; 101.33 kPa; Liquid; Chromatography; x1 = 0
measurement.label: activity coefficient
Would you mind answering with just the numeric figure?

{"columns": ["compound", "activity coefficient"],
 "data": [
  ["CC(C)O [propan-2-ol] + N#C[N-]C#N.OCCC[n+]1ccccc1", 2.11],
  ["COC(C)=O [methyl ethanoate] + N#C[N-]C#N.OCCC[n+]1ccccc1", 3.98],
  ["CC(C)(C)O [2-methylpropan-2-ol] + N#C[N-]C#N.OCCC[n+]1ccccc1", 3.05]
]}

What does the record list as activity coefficient for c1ccccc1 [benzene] + N#C[N-]C#N.OCCC[n+]1ccccc1 ?
5.85

What does the record list as activity coefficient for CC(C)=O [acetone] + N#C[N-]C#N.OCCC[n+]1ccccc1 ?
2.31

What does the record list as activity coefficient for CCCC(=O)OC [methyl butanoate] + N#C[N-]C#N.OCCC[n+]1ccccc1 ?
11.7

What does the record list as activity coefficient for c1ccsc1 [thiophene] + N#C[N-]C#N.OCCC[n+]1ccccc1 ?
3.14

What does the record list as activity coefficient for C=C(C)c1ccccc1 [(1-methylethenyl)benzene] + N#C[N-]C#N.OCCC[n+]1ccccc1 ?
14.6

----------
Recorded activity coefficient, one value per entry.
- protocol.text: activity coefficient (dimensionless); of the first substance listed, at infinite dilution; xn = mol fraction of the nth substance listed
- particulars: 318.15 K; 101.33 kPa; Liquid; Chromatography; x1 = 0
Would you mind answering with just the numeric figure?

{"columns": ["compound", "activity coefficient"],
 "data": [
  ["C=CCCCCCC [oct-1-ene] + N#C[N-]C#N.OCCC[n+]1ccccc1", 346]
]}

What does the record list as activity coefficient for C=Cc1ccccc1 [styrene] + N#C[N-]C#N.OCCC[n+]1ccccc1 ?
6.93
